Test system: UACC-257 melanoma
Assay: NCI tumour cell line growth inhibition, 48 h; in the data active = GI50 below about 0.43 µM; inactive = the rest
Outcome codes: active, inactive

>  <Molecule>
COc1cc2c3c(n(CCCNC4=NCCS4)c(=O)c2cc1OC)-c1cc2c(cc1C3=O)OCO2

>  <Category label>
inactive

$$$$
>  <Molecule>
Cc1oc2c(C(=O)N/N=C\c3ccc(O)cc3O)c[nH]c2c1C

>  <Category label>
inactive

$$$$
>  <Molecule>
CCOC(=O)/C(C#N)=C\C=C(\Sc1nc2ccccc2s1)c1ccc(Cl)cc1

>  <Category label>
inactive

$$$$
>  <Molecule>
CNCCCNc1nc2ccccc2c2c(=O)c3cc(F)ccc3sc12

>  <Category label>
inactive

$$$$
>  <Molecule>
Nc1c(C(=O)Nc2cccc(C(F)(F)F)c2)sc2nc3c(cc12)C(O)CCC3 (stereo unspecified)

>  <Category label>
inactive

$$$$
>  <Molecule>
NCCCCCn1c2c(c3ccccc3c1=O)C(=O)c1ccccc1-2

>  <Category label>
inactive

$$$$
>  <Molecule>
Clc1ccc(Cn2c(CN3CCCC3)nc3ccccc32)cc1

>  <Category label>
inactive

$$$$
>  <Molecule>
c1ccc(CC(Cc2ccccc2)C2=NCCCN2)cc1

>  <Category label>
inactive

$$$$
>  <Molecule>
Cc1cc(=O)n2nnc3c4ccccc4ccc3n12

>  <Category label>
inactive

$$$$
>  <Molecule>
Cc1nn2c(/C=N/N=C(N)N)c(-c3ccc(Cl)c([N+](=O)[O-])c3)nc2s1

>  <Category label>
inactive

$$$$
>  <Molecule>
O=C(Nc1ccc(Cl)cc1)Nc1ccc(Cl)c(C(F)(F)F)c1

>  <Category label>
inactive

$$$$
>  <Molecule>
C=[CH][Sn]([CH]=C)([S]c1cccc2cccnc12)[S]c1cccc2cccnc12

>  <Category label>
active

$$$$
>  <Molecule>
O=c1ncc(I)cn1C1CC(O)C(CO)O1 (stereo unspecified)

>  <Category label>
inactive

$$$$
>  <Molecule>
CC(C)N(C(C)C)[PH+]1O[PH+](N(C(C)C)C(C)C)O[PH+](N(C(C)C)C(C)C)O[PH+](N(C(C)C)C(C)C)O1.[C-]#[O+].[C-]#[O+].[C-]#[O+].[C-]#[O+].[C-]#[O+].[C-]#[O+].[C-]#[O+].[C-]#[O+].[Mo].[Mo] (stereo unspecified)

>  <Category label>
inactive

$$$$
>  <Molecule>
O=C(OCC1OC(n2cc(C(F)(F)F)c(=O)[nH]c2=O)CC1OC(=O)c1ccc([N+](=O)[O-])cc1)c1ccc([N+](=O)[O-])cc1 (stereo unspecified)

>  <Category label>
inactive

$$$$
>  <Molecule>
O=c1ccccc(-c2ccc(Br)cc2)c1O

>  <Category label>
active

$$$$

----------
Tested on: 786-0 renal
Assay: NCI tumour cell line growth inhibition, 48 h

>  <Compound>
O=c1ncc(I)cn1C1CC(O)C(CO)O1 (stereo not drawn)

>  <GI50>
3100 µM

$$$$
>  <Compound>
Cn1c(-c2ccncc2)c(-c2ccc(F)cc2)c2ncccc21

>  <GI50>
> 25 µM

$$$$
>  <Compound>
Cc1cc(=O)n2nnc3c4ccccc4ccc3n12

>  <GI50>
8.25 µM

$$$$
>  <Compound>
Cc1ccc(C2=Nc3c(N)nc(N)nc3NC(c3cccc(Nc4ccnc5cc(C(F)(F)F)ccc45)c3)C2)cc1 (stereo not drawn)

>  <GI50>
1.51 µM

$$$$
>  <Compound>
COc1ccc(/C=C2\COc3ccc(O)c(O)c3C2=O)cc1

>  <GI50>
0.708 µM

$$$$
>  <Compound>
COc1cc(-c2nn(-c3cccc(NC(=O)Nc4cccc(C(F)(F)F)c4)c3)cc2-c2ccncc2)ccc1Cl

>  <GI50>
1.12 µM

$$$$
>  <Compound>
COc1cc(/C=C2\C(=O)Nc3ccccc32)cc(OC)c1O

>  <GI50>
7.07 µM

$$$$
>  <Compound>
Cc1ccc(CN(C)c2ccc(CO)c(Cl)c2)cc1

>  <GI50>
11.8 µM

$$$$
